Consider the following compounds and their measured pest or weed control at 280 g/ha readings.
# Test system: Ambrosia artemisiifolia (AMBEL), common ragweed
# assay: Postemergence herbicide evaluation, growth of Ambrosia artemisiifolia (AMBEL)
# Format: in vivo
# run_conditions: Ambrosia artemisiifolia, post-emergence, 504 h, read-out: AVE. AMBEL
Answer format: numeric, % implied, no suffix.

Reference set (3 entries):
O=C(COc1ccc(Cl)cc1Cl)Nc1ccc(Cl)cc1 ... 88
N#C/C(=N\OC(=O)COc1ccc(Cl)cc1Cl)c1ccccc1 ... 98
O=C(COc1ccc(Cl)cc1Cl)n1cnc2ccccc21 ... 85

Lab note: O=C(COc1ccc(Cl)cc1Cl)OCCCCCOC(=O)COc1ccc(Cl)cc1Cl gave pest or weed control at 280 g/ha of 100

---

# Tested on: Chenopodium album (CHEAL), common lambsquarters
# assay: Postemergence herbicide evaluation, growth of Chenopodium album (CHEAL)
# Type: in vivo
# run_conditions: Chenopodium album, post-emergence, 504 h, 280 g ae/ha, 21 DAA; read-out: Ave. CHEAL, percent reduction in plant size relative to the untreated control
Consider the following compounds and their measured pest or weed control at 280 g/ha readings.
Answer format: numeric, % implied, no suffix.

CC(C)ONC(=O)COc1ccc(Cl)cc1Cl ... 94
O=C(COc1ccc(Cl)cc1Cl)O/N=C/c1ccncc1 ... 98
O=C(COc1ccc(Cl)cc1Cl)Oc1cncnc1 ... 95
O=C(COc1ccc(Cl)cc1Cl)Nc1cc[nH]n1 ... 92.5

The observed pest or weed control at 280 g/ha for C/C(=N\OC(=O)COc1ccc(Cl)cc1Cl)c1ccncc1 when tested with Chenopodium album (CHEAL), common lambsquarters stands at 98.5

---

# System: Amaranthus rudis (AMATA), tall water hemp
# assay: Postemergence herbicide evaluation, growth of Amaranthus rudis (AMATA)
# Format: in vivo
# run_conditions: Amaranthus tuberculatus, post-emergence, 336 h, 560 g ae/ha, 14 DAA; read-out: Ave. AMATA, percent reduction in plant size relative to the untreated control
outcome_measure: pest or weed control at 560 g/ha (%)
Answer format: numeric, % implied, no suffix.

C/C(=N\OC(=O)COc1ccc(Cl)cc1Cl)c1ccccc1 ... 87
C/C(=N\OC(=O)COc1ccc(Cl)cc1Cl)c1ccccc1Cl ... 90
C/C(=N\OC(=O)COc1ccc(Cl)cc1Cl)c1cccnc1 ... 90
O=C(COc1ccc(Cl)cc1Cl)Oc1cccnn1 [Compound E2] ... 83
Cc1nccc(NC(=O)COc2ccc(Cl)cc2Cl)c1C ... 87.5

The observed pest or weed control at 560 g/ha for CC(C)CONC(=O)COc1ccc(Cl)cc1Cl when tested with Amaranthus rudis (AMATA), tall water hemp stands at 92.5

The observed pest or weed control at 560 g/ha for O=C(COc1ccc(Cl)cc1Cl)O/N=C/c1ccccn1 when tested with Amaranthus rudis (AMATA), tall water hemp stands at 87.5

The observed pest or weed control at 560 g/ha for O=C(COc1ccc(Cl)cc1Cl)O/N=C1\CCCc2ccccc21 when tested with Amaranthus rudis (AMATA), tall water hemp stands at 82.5

The observed pest or weed control at 560 g/ha for O=C(COc1ccc(Cl)cc1Cl)O/N=C/c1ccccc1 when tested with Amaranthus rudis (AMATA), tall water hemp stands at 88

The observed pest or weed control at 560 g/ha for O=C(COc1ccc(Cl)cc1Cl)Nc1ccon1 [Compound D2] when tested with Amaranthus rudis (AMATA), tall water hemp stands at 92
